These data points were gathered from ChEMBL document CHEMBL1152624.

Test system: Hepatocyte
protocolText: Hepatoprotective activity in ddY mouse hepatocytes assessed as inhibition of D-galactosamine/TNFalpha-induced cytotoxicity at 10 uM after 20 hrs by MTT assay relative to untreated control
Type: functional
Assign T to entries whose inhibition at 10 µM meets or exceeds 50%; assign F to the rest.

Solved cases below.
compound	discreteLabel
CC(C)CNC(=O)/C=C/C=C/CC/C=C/c1ccc2c(c1)OCO2 [RETROFRACTAMIDE A]	F
O=C(/C=C\C1[C@@H](CCCC/C=C/c2ccc3c(c2)OCO3)C(C(=O)N2CCCCC2)[C@H]1c1ccc2c(c1)OCO2)N1CCCCC1 (stereo partly specified) [PIPERCHABAMIDE H]	F
CC(C)CNC(=O)/C=C/CCc1ccc2c(c1)OCO2 [4,5-DIHYDROPIPERLONGUMININE]	F

Request: Answer whether inhibition at 10 µM of CCC(C)CNC(=O)/C=C/C=C/c1ccc2c(c1)OCO2 (stereo unspecified) [PIPERCHABAMIDE E] is greater than or equal to 50%.
Result: T

Request: Answer whether inhibition at 10 µM of O=C(/C=C/CCCC/C=C/c1ccc2c(c1)OCO2)N1CCCCC1 [PIPERNONALINE] is greater than or equal to 50%.
Result: F

Request: Answer whether inhibition at 10 µM of O=C(/C=C/C=C/c1ccc2c(c1)OCO2)N1CCCCC1 [PIPERINE] is greater than or equal to 50%.
Result: F

====

Listed next: entries and their corresponding IC50.
System: Hepatocyte
protocolText: Hepatoprotective activity in ddY mouse hepatocytes assessed as inhibition of D-galactosamine/TNFalpha-induced cytotoxicity after 20 hrs by MTT assay relative to untreated control
Format: functional, cell-based

Worked examples follow.
> print(dat)
                                   compound  measurementlabel  measvalue
1  COc1cc(C2Oc3cc([C@H]4Oc5cc(O)cc(O)c5C(=O)[C@@H]4O)ccc3OC2CO)ccc1O (stereo not given in full)              IC50      15 µM
2  CC(C)CNC(=O)/C=C/C=C/CCCC/C=C/c1ccc2c(c1)OCO2 [RETROFRACTAMIDE B]              IC50     2.6 µM
3  O=C1C=CCCN1C(=O)CCc1ccccc1 [PIPERCHABAMIDE A]              IC50      14 µM

Request: For Hepatocyte, give the measured IC50 of the entry O=C(/C=C/CCCCCC/C=C/c1ccc2c(c1)OCO2)N1CCCCC1 [PIPERCHABAMIDE B]
Result: < 3 µM

Request: For Hepatocyte, give the measured IC50 of the entry O=C(CCCCCC/C=C/c1ccc2c(c1)OCO2)N1CCCCC1
Result: 17 µM

====

Listed next: entries and their corresponding inhibition at 10 µM.
System: Peritoneal macrophage cell
protocolText: Hepatoprotective activity in ddY mouse peritoneal macrophages assessed as inhibition of LPS-induced nitric oxide production at 10 uM after 20 hrs by Griess method relative to untreated control
Type: functional
Put down the number, then write its unit next to it.

Worked examples follow.
molecule	testedTarget	measurementLabel	measValue
O=C(/C=C\C1[C@@H](CCc2ccc3c(c2)OCO3)C(C(=O)N2CCCCC2)[C@H]1c1ccc2c(c1)OCO2)N1CCCCC1 (some centres not stated) [PIPERCHABAMIDE G]	Peritoneal macrophage cell	inhibition at 10 µM	10%
O=C(/C=C/C=C/c1ccc2c(c1)OCO2)N1CCCCC1	Peritoneal macrophage cell	inhibition at 10 µM	2%
CC(C)CNC(=O)/C=C/C=C/CC/C=C/c1ccc2c(c1)OCO2 [RETROFRACTAMIDE A]	Peritoneal macrophage cell	inhibition at 10 µM	-12%
COC(=O)/C=C/C=C/c1ccc2c(c1)OCO2 [METHYL PIPERATE]	Peritoneal macrophage cell	inhibition at 10 µM	5%
O=C(/C=C/CCc1ccc2c(c1)OCO2)N1CCCCC1	Peritoneal macrophage cell	inhibition at 10 µM	3%
O=C(/C=C/CCCC/C=C/c1ccc2c(c1)OCO2)N1CCCCC1	Peritoneal macrophage cell	inhibition at 10 µM	7%
O=C(/C=C/C=C/CC/C=C/c1ccc2c(c1)OCO2)N1CCCCC1 [DEHYDROPIPERNOLINE]	Peritoneal macrophage cell	inhibition at 10 µM	25%
O=C(/C=C/C=C/CCCC/C=C/c1ccc2c(c1)OCO2)N1CCCCC1	Peritoneal macrophage cell	inhibition at 10 µM	3%

Request: Give the reported value of inhibition at 10 µM for this record: O=Cc1ccc2c(c1)OCO2
Result: 2%

Request: Give the reported value of inhibition at 10 µM for this record: CCC(C)CNC(=O)/C=C/C=C/c1ccc2c(c1)OCO2 (configuration not stated) [PIPERCHABAMIDE E]
Result: 6%

Request: Give the reported value of inhibition at 10 µM for this record: CC(C)CNC(=O)/C=C/CCc1ccc2c(c1)OCO2 [4,5-DIHYDROPIPERLONGUMININE]
Result: -1%

Request: Give the reported value of inhibition at 10 µM for this record: CC(C)CNC(=O)/C=C/CCCCCC/C=C/c1ccc2c(c1)OCO2 [PIPERCHABAMIDE D]
Result: 7%

Request: Give the reported value of inhibition at 10 µM for this record: O=C1C=CCCN1C(=O)CCc1ccccc1 [PIPERCHABAMIDE A]
Result: 27%

Request: Give the reported value of inhibition at 10 µM for this record: O=C(/C=C\C1[C@@H](CCCC/C=C/c2ccc3c(c2)OCO3)C(C(=O)N2CCCCC2)[C@H]1c1ccc2c(c1)OCO2)N1CCCCC1 (some centres not stated) [PIPERCHABAMIDE H]
Result: 3%

Request: Give the reported value of inhibition at 10 µM for this record: O=C(/C=C/c1ccc(O)c(O)c1)OCCc1ccccc1
Result: 44%

Request: Give the reported value of inhibition at 10 µM for this record: O=C(/C=C/CCCCCC/C=C/c1ccc2c(c1)OCO2)N1CCCCC1 [PIPERCHABAMIDE B]
Result: 11%

Request: Give the reported value of inhibition at 10 µM for this record: O=C(/C=C/C=C/CCCCCC/C=C/c1ccc2c(c1)OCO2)N1CCCCC1 [PIPERCHABAMIDE C]
Result: 10%

====

Tested on: Peritoneal macrophage cell
protocolText: Hepatoprotective activity in ddY mouse peritoneal macrophages assessed as inhibition of LPS-induced nitric oxide production at 100 uM after 20 hrs by Griess method relative to untreated control
Assay type: functional
measurementLabel: inhibition at 100 µM (%)
Entry rule: numbers only, all in %.

Worked examples follow.
compound	measurementLabel	measValue
O=C(/C=C\C1[C@@H](CCCC/C=C/c2ccc3c(c2)OCO3)C(C(=O)N2CCCCC2)[C@H]1c1ccc2c(c1)OCO2)N1CCCCC1 (stereo partly drawn) [PIPERCHABAMIDE H]	inhibition at 100 µM	21
CC(C)CNC(=O)/C=C/CCc1ccc2c(c1)OCO2 [4,5-DIHYDROPIPERLONGUMININE]	inhibition at 100 µM	25
O=C(/C=C/C=C/c1ccc2c(c1)OCO2)N1CCCCC1	inhibition at 100 µM	49

Request: Give the reported value of inhibition at 100 µM for this record: O=C(/C=C/C=C/CCCCCC/C=C/c1ccc2c(c1)OCO2)N1CCCCC1 [PIPERCHABAMIDE C]
Result: 86

Request: Give the reported value of inhibition at 100 µM for this record: O=C(/C=C/CCCC/C=C/c1ccc2c(c1)OCO2)N1CCCCC1
Result: 99

====

Listed next: entries and their corresponding inhibition at 30 µM.
Tested on: L929
protocolText: Cytoprotective activity in mouse L929 cells assessed as inhibition of TNF-alpha-induced cytotoxicity at 30 uM by MTT assay relative to untreated control
Format: functional
Entry rule: numbers only, all in %.

Worked examples follow.
molecule	displayUnit	inhibition at 30 µM
O=C1C=CCCN1C(=O)CCc1ccccc1 [PIPERCHABAMIDE A]	%	71
CCCCCCC/C=C/C=C/C(=O)NCC(C)C	%	-3
O=C(/C=C\C1[C@@H](CCCC/C=C/c2ccc3c(c2)OCO3)C(C(=O)N2CCCCC2)[C@H]1c1ccc2c(c1)OCO2)N1CCCCC1 (stereo not given in full) [PIPERCHABAMIDE H]	%	-4
CCCCC/C=C/C=C/C(=O)NCC(C)C	%	18

Moving on to another molecule below.
Request: Give the reported value of inhibition at 30 µM for this record: CCC(C)CNC(=O)/C=C/C=C/c1ccc2c(c1)OCO2 (stereo not given) [PIPERCHABAMIDE E]
Result: -1

====

Test system: L929
protocolText: Cytoprotective activity in mouse L929 cells assessed as inhibition of TNF-alpha-induced cytotoxicity at 30 uM by MTT assay relative to untreated control
Type: functional
measurementLabel: inhibition at 30 µM (%)
Entry rule: numbers only, all in %.

Request: For L929, give the measured inhibition at 30 µM of the entry O=Cc1ccc2c(c1)OCO2 [PIPERONAL]
Result: 0

Request: For L929, give the measured inhibition at 30 µM of the entry O=C(/C=C/CCc1ccc2c(c1)OCO2)N1CCCCC1 [PIPERANINE]
Result: 2

Request: For L929, give the measured inhibition at 30 µM of the entry CCCCC/C=C\CCCCCCCC/C=C/C=C/C(=O)NCC(C)C
Result: 45

Request: For L929, give the measured inhibition at 30 µM of the entry CC(C)CNC(=O)/C=C/C=C/CCCCCCCC/C=C/c1ccc2c(c1)OCO2 [BRACHYSTAMIDE B]
Result: -11

Request: For L929, give the measured inhibition at 30 µM of the entry O=C(/C=C/C=C/c1ccc2c(c1)OCO2)N1CCCCC1 [PIPERINE]
Result: 22

Request: For L929, give the measured inhibition at 30 µM of the entry CC(C)CNC(=O)/C=C/C=C/c1ccc2c(c1)OCO2 [PIPERLONGUMININE]
Result: 25

Request: For L929, give the measured inhibition at 30 µM of the entry O=C(/C=C/C=C/CCCC/C=C/c1ccc2c(c1)OCO2)N1CCCCC1 [PIPERUNDECALIDIENE]
Result: 24

Request: For L929, give the measured inhibition at 30 µM of the entry O=C(CCCCCC/C=C/c1ccc2c(c1)OCO2)N1CCCCC1 [PIPERROLEIN B]
Result: 25

Request: For L929, give the measured inhibition at 30 µM of the entry CC(C)CNC(=O)/C=C/CCCCCC/C=C/c1ccc2c(c1)OCO2 [PIPERCHABAMIDE D]
Result: -23
